System: Caenorhabditis elegans N2
test-details: mean nematode size ln(EXT) after 48 h, plate-adjusted (DMSO control set to 6) (ln(EXT), control-adjusted); higher = larger nematodes / less growth inhibition
test-settings: 0.5 µM; exposure time 48 h
Structures can show the parent of a compound that is named as a salt.
Provide the reported mean nematode size ln(EXT) (ln) of each item.

Check out these entries, answers already filled in.
compound	mean nematode size ln(EXT) (ln)
CCc1cccc(CC)c1N	5.78
NC(=O)Cn1c(=O)cc(CCN2CCN(c3nccc4sccc34)CC2)c2ccc(F)cc21	5.9
C[Si](Cn1cncn1)(c1ccc(F)cc1)c1ccc(F)cc1	5.73
O=C(O)c1cccc(C(=O)O)c1	5.93
COc1ccc(OC(F)(F)F)cc1CN[C@H]1CCCN[C@H]1c1ccccc1	6.04
C[Si]1(C)O[Si](C)(C)O[Si](C)(C)O[Si](C)(C)O1	5.99
CC(=O)Oc1ccccc1C(=O)O	5.74
COP(=O)(NC(C)=O)SC (centres undefined) [Acephate]	5.69

Would you mind giving mean nematode size ln(EXT) (ln) for every compound in the list below?
1. N#CCCCCC#N
2. O=c1n(Cl)c(=O)n(Cl)c(=O)n1Cl
3. CCCCCCCCCCCCc1ccccc1S(=O)(=O)O [Dodecylbenzenesulfonic acid, Na salt]
4. O=C(O)CN(CC(=O)O)CC(=O)O
5. CN(C)C(=O)Nc1cccc(C(F)(F)F)c1
6. O=[N+]([O-])c1ccc(O)cc1
7. N#Cc1cc(Br)c(O)c(Br)c1

Reply:
[5.89, 5.9, 5.73, 5.78, 6.02, 5.92, 5.85]

Would you mind giving mean nematode size ln(EXT) (ln) for every compound in the list below?
1. Cn1sc(Cl)cc1=O
2. OC[C@H]1O[C@@](CO)(O[C@H]2O[C@H](CO)[C@@H](O)[C@H](O)[C@H]2O)[C@@H](O)[C@@H]1O
3. Cc1cccc2ccccc12
4. CNC(=O)O/N=C/C(C)(C)SC
5. COC(=O)c1ccc(I)cc1S(=O)(=O)NC(=O)Nc1nc(C)nc(OC)n1 [Iodosulfuron-methyl-sodium]

Reply:
1: 5.96; 2: 6.01; 3: 6.08; 4: 5.86; 5: 6.1

Would you mind giving mean nematode size ln(EXT) (ln) for every compound in the list below?
1. COC(=O)c1ccccc1C(=O)O [Methyl hydrogen phthalate]
2. CC(=O)OC[C@H]1O[C@@](COC(C)=O)(O[C@H]2O[C@H](COC(C)=O)[C@@H](OC(C)=O)[C@H](OC(C)=O)[C@H]2OC(C)=O)[C@@H](OC(C)=O)[C@@H]1OC(C)=O [Sucrose octaacetate]
3. N#CC(CCc1ccc(Cl)cc1)(Cn1cncn1)c1ccccc1 (centres undefined)
4. CC1COC(Cn2cncn2)(c2ccc(Oc3ccc(Cl)cc3)cc2Cl)O1 (centres undefined)
5. COc1cc(-c2nc(NC(=O)c3cc4cc(C)cc(C)c4n3CC(=O)O)sc2CCC2CCCCC2)c(OC)cc1Cl
6. COP(N)(=O)SC (centres undefined)
7. OC(c1ccc(Cl)cc1)(c1ccc(Cl)cc1)C(Cl)(Cl)Cl

Reply:
6.07
5.78
6.18
4.06
5.89
5.74
5.64

Would you mind giving mean nematode size ln(EXT) (ln) for every compound in the list below?
1. CCOC(=O)C(C)(C)Oc1ccc(Cl)cc1 [Clofibrate]
2. ClCCOCCCl
3. CC1=NNC(=O)N(/N=C/c2cccnc2)C1
4. CCOP(=S)(OCC)OC(Cl)C(Cl)(Cl)Cl (centres undefined)
5. CON(C)C(=O)Nc1ccc(Cl)c(Cl)c1
6. Cc1c(C(=O)O)c(O)cc2c1C(=O)c1c(O)c([C@@H]3O[C@H](CO)[C@@H](O)[C@H](O)[C@H]3O)c(O)c(O)c1C2=O
7. CCc1nn(C2CCCCC2)c2cc(C3(C#N)CCC(C(=O)O)CC3)ccc12 (centres undefined)

Reply:
1. 6.01
2. 5.78
3. 5.74
4. 5.75
5. 6.04
6. 5.97
7. 5.91
